test system: NCI-H522; assay: NCI tumour cell line growth inhibition, 48 h
Calls of active or inactive are those of the source. Cut-off read from the data, not from the text of the source: active = GI50 up to about 1.1 µM and inactive = higher.
readout-kind: GI50

Here are 4 compounds together with their reported answers.
compound	GI50
COc1cc(OC)c2c(=O)c(OC)c(-c3ccc4c(c3)OCO4)oc2c1OC	43.1 µM (inactive)
COc1ccc([C@]23CCC4(OCC(C)(C)CO4)[C@H]4CON(O[C@H](O[C@@H]5CCCCC5C(C)(C)c5ccccc5)C2)[C@@H]43)cc1OC (some centres undefined)	27 µM (inactive)
COc1ccc(/C=C2\CCC(CNc3ccc(S(N)(=O)=O)cc3)C2=O)cc1 (centres undefined)	4.52 µM (inactive)
CC(C)c1cccc(C(C)C)c1NC(=O)C(=O)CC(=O)CC(c1ccccc1)c1c(O)oc2ccccc2c1=O (centres undefined)	> 100 µM (inactive)

Q) Which GI50 is reported for this compound? O=[N+]([O-])c1ccc(/N=N/c2c(O)ccc3cc(S(=O)(=O)O)cc(S(=O)(=O)O)c23)cc1
A) > 100 µM (inactive)

Q) // query GI50 value for entry Brc1ccc(/C=N/C23CC4CC(CC(C4)C2)C3)cc1
A) > 100 µM (inactive)

Q) Which GI50 value is on record for O=C1CSC(c2ccc([N+](=O)[O-])cc2)N1c1ccc(-c2ccc(-n3c(-c4ccccc4)nc4ccccc4c3=O)cc2)cc1 (centres undefined) ?
A) > 100 µM (inactive)

Q) Request the reported GI50 associated with COc1ccc(C(=O)c2ccc(-n3cc(/C=C/[N+](=O)[O-])c4ccccc43)cc2)cc1
A) 15.4 µM (inactive)

Q) Fill in the blank: the reported GI50 of Cc1ccc(C)c(NC(=O)CCc2nnc(S)[nH]2)c1 is ____.
A) > 100 µM (inactive)

---

test system: MDA-MB-435; experiment: NCI tumour cell line growth inhibition, 48 h
The source made the active and inactive calls. Cut-off read from the data, not from the text of the source: active = GI50 up to about 1.1 µM and inactive = higher.
Respond with a class label; see active, inactive

> print(dat)
                                   compound  class.name
1  CSC1=C(C)C(/C=N/Nc2ccc([N+](=O)[O-])cc2)=C(C)N(c2ccccc2)S1(=O)=O    inactive

Q) Tell me the recorded outcome of this test for O=C1C=CC(=O)N1n1c(Cc2ccccc2)n[nH]c1=O .
A) inactive

Q) Would you mind telling me which call this test gave CC(=O)/C=N/CC(=O)O ?
A) inactive

Q) Please share the test call associated with Cc1cc(NC(=O)NC(=O)c2ccccc2N(C)C)ccc1Oc1ncc(Br)cn1 .
A) active

---

# GI50 annotations
test system: SNB-19; assay: NCI tumour cell line growth inhibition, 48 h
Active and inactive are the calls of the source. No stated cut-off is given here; in the data, active = GI50 up to about 1.1 µM and inactive = higher.

Known results for compounds:
> print(dat)
                                   compound  study.target  readout.kind               result
1               c1ccc2c(c1)sc1c3cnccc3ccc21        SNB-19          GI50  > 100 µM (inactive)
2  COc1ccc(COCC[C@H](C)OC2OC(CO)C(O)C(O)C2O)cc1 (some centres not stated)        SNB-19          GI50  > 100 µM (inactive)
3  Oc1c(Br)cc(Br)cc1CN(Cc1cc(Br)cc(Br)c1O)C1CCCCC1        SNB-19          GI50   33.6 µM (inactive)
4  CCOC(=O)Oc1ccc(C(CNC(C)C)OC(=O)OCC)cc1OC(=O)OCC (configuration not stated)        SNB-19          GI50  > 100 µM (inactive)
5  OCC1OC(NC(=S)NCCC(F)(F)C(F)(F)C(F)(F)C(F)(F)C(F)(F)C(F)(F)F)C(O)C(O)C1O (configuration not stated)        SNB-19          GI50   69.8 µM (inactive)

Q) Entry CCOc1ccc(NC(=O)CCC(=O)NN)cc1 : reported GI50 = ?
A) > 100 µM (inactive)

Q) Reported GI50, compound NC(=S)N1N=C2c3ccccc3CC[C@H]2[C@@H]1c1ccc(Cl)cc1 : ____
A) 47.4 µM (inactive)

Q) I have this compound here, CC(C)(C)c1cc(Cc2ccc([N+](C)(C)C)cc2)c(O)c(C(C)(C)C)c1 , and I need its recorded GI50.
A) 12.9 µM (inactive)

---

test system: UO-31; test: NCI tumour cell line growth inhibition, 48 h
The source made the active and inactive calls. Cut-off read from the data, not from the text of the source: active = GI50 up to about 1.1 µM and inactive = higher.
readout-kind: GI50

molecule	GI50
CC(=O)N1C/C(=C\c2ccc(N(C)C)cc2)C(=O)/C(=C/c2ccc(N(C)C)cc2)C1	> 100 µM (inactive)
O=C(/C=C1/NC(=O)CS1)Nc1ccccc1	> 100 µM (inactive)
O=C(O)c1cc2ccccc2c(S(=O)(=O)O)c1O	> 100 µM (inactive)
COc1cc(C2C(C(=O)Nc3ccc([N+](=O)[O-])cc3)=C(C)NC(C)=C2C(=O)Nc2ccc([N+](=O)[O-])cc2)ccc1O	19.1 µM (inactive)
CC(C)C1CC(CO)(CNc2nc(N)nc(Cl)c2C=O)C1 (centres undefined)	6.27 µM (inactive)

Now consider the entry below.
Q) State the recorded GI50 for this entry: COc1ccc(NC(C)=O)cc1N1C(=O)/C(=C\c2cccc(Oc3ccccc3)c2)S(=O)(=O)C1c1ccccc1 (centres undefined)
A) 18.9 µM (inactive)

---

system: U-251; test: NCI tumour cell line growth inhibition, 48 h
Calls of active or inactive are those of the source. Cut-off read from the data, not from the text of the source: active = GI50 up to about 1.1 µM and inactive = higher.
Outcomes you can answer with include only these: active, inactive

compound	class-name
COC1=C(Br)[C@H](O)[C@@]2(C=C1Br)CC(C(=O)NCCCCCNC(=N)N)=NO2	inactive
Cc1cc(=O)oc2c(C)c3oc(CBr)c(Br)c3cc12	inactive
Cc1ccc(Cc2n[nH]c(=O)n2/N=C\CC/C=N\n2c(Cc3ccc(C)cc3)n[nH]c2=O)cc1	inactive
COc1ccc(CCN2CCN(CCCc3ccccc3)CC2)cc1	inactive
O=C1NC(=S)N/C1=C\c1ccc(Cl)cc1	inactive

Below: the item to evaluate.
Q) Name the outcome recorded for O=C(Nc1ccc2ncccc2c1)Nc1ccc2ncccc2c1 in the assay.
A) inactive

---

tested on: ACHN; test: NCI tumour cell line growth inhibition, 48 h
Activity calls are given as the source filed them. Cut-off read from the data, not from the text of the source: active = GI50 up to about 1.1 µM and inactive = higher.
readout-kind: GI50

Q) Hello, I am looking for reported GI50 with ACHN for O=C(NCCNCCCNC(=O)c1cc(-c2ccccc2)nc2ccccc12)c1cccc(O)c1O . Could you help?
A) 2.43 µM (inactive)

Q) Lab note: need GI50 with ACHN for entry Cc1cc2nc3ccccc3n2c2ccccc12 , please look it up.
A) > 10 µM (inactive)

Q) Missing value: GI50, ACHN, entry CCOC(=O)C(C(=O)COC(C)(C)C)[C@@H]1C=C[C@H](OC(C)=O)C1 (stereo partly specified) . Fill in?
A) > 100 µM (inactive)

---

We begin with a simple list: items and their reported GI50.
system: UACC-62; assay: NCI tumour cell line growth inhibition, 48 h
Active and inactive are the calls of the source. Cut-off read from the data, not from the text of the source: active = GI50 up to about 1.1 µM and inactive = higher.

Before answering, review these 8 worked examples.
> print(dat)
                                   compound  readout.kind               result
1  C=CCN(N=O)C(=O)N(CCCC(NC(C)=O)C(=O)NCc1ccccc1)Cc1ccccc1 (stereo unspecified)          GI50   49.8 µM (inactive)
2  Cc1ccc([N+](=O)[O-])c2c(NCC(O)CO)ccnc12 (stereo unspecified)          GI50   30.3 µM (inactive)
3          CN(C)Cc1cc(/N=N/c2ccccc2Cl)ccc1O          GI50   18.6 µM (inactive)
4                CN(C)C(=S)SCC(=O)Nc1ccccc1          GI50  > 100 µM (inactive)
5  CC1=NN(c2cccc(Cl)c2)C2(C1)SCC(=O)N2c1nc2ccccc2s1 (stereo unspecified)          GI50   29.5 µM (inactive)
6  O=[N+]([O-])c1ccc(/N=N\c2c(O)ccc3ccccc23)c([N+](=O)[O-])c1          GI50  > 100 µM (inactive)
7            Cc1ccc(S(=O)(=O)SCc2ccccc2)cc1          GI50   29.4 µM (inactive)
8  CCN(CC)c1ccc(/N=C2/C=CC(=C(C#N)C#N)c3ccccc32)c(C)c1          GI50   1.38 µM (inactive)

Q) What does the data say about its GI50? Entry: Nc1ccc(C(=O)N/C(=C\c2cccc([N+](=O)[O-])c2)c2nc3cc(Cl)ccc3[nH]2)cc1
A) > 100 µM (inactive)

Q) Returns the measured GI50 for the input compound. Input: COc1cc(C2SCC(=O)N2c2ccccn2)cc(OC)c1OC (stereo unspecified)
A) 87.5 µM (inactive)

Q) What value of measured GI50 is listed for NC(=S)N/N=C1\c2ccccc2CCC1CCC1(O)CCc2ccccc2C1=O (stereo unspecified) ?
A) 17.8 µM (inactive)
